Examples of compounds with documented melting point follow.
result-type: melting point

CC(C)CN(C=NS(=O)(=O)c1c(Cl)nc2ccc(C3CC3)nn12)CC(C)C = 154 to 160 °C
Cc1oc(-c2ccco2)nc1COc1ccc(COc2nn(Cc3ccccc3)cc2C=O)cc1Cl = 158 to 159 °C
CCOC(=O)C(=O)c1cn(CC)c2cc(-c3ccc(OC(F)(F)F)cc3)ccc12 = 114 to 116 °C
COc1cccc(OC)c1-c1cc(C(=O)NC2(C(=O)O)C3CC4CC(C3)CC2C4)nn1-c1ccc(C#N)c2ccccc12 (centres undefined) = 290 °C
OC(CCN1CC=C(c2ccc(Cl)cc2)CC1)c1ccc(Cc2ccccn2)cc1 (centres undefined) = 129 to 131 °C
Cc1ccc([N+](=O)[O-])cc1Nc1nccc(-c2cccnn2)n1 = 275 to 277 °C
CC(C)(C)OC(=O)N[C@@H](Cc1cc(F)cc(F)c1)C(=O)CCl = 139 °C
NC(=O)c1cnn2c1NCC=C2c1ccccc1 = 149 to 152 °C
CC#Cc1cc(C)c(C2=C(O)C3(CCN(OC)CC3)N(C)C2=O)c(C)c1 = > 240 °C

* * *

result-type: melting point

Cc1ccc(S(=O)(=O)Nc2cc(C(=O)O)c3c(c2)C(C(=O)O)CC(c2ccccc2)N3)cc1 (centres undefined) = 235 to 237 °C
O=c1c2c[nH]c3ccncc3c-2nn1-c1ccccc1 = 334 to 337 °C
CCC(CC)n1cc(C)nc(N2CCc3cc(OC)cc(C)c32)c1=O = 138 to 140 °C
CCOc1ccc(/C=C(\NC(=O)c2ccc(OCC(C)C)cc2)C(=O)NCCO)cc1 = 124 to 125 °C
O=C(C=Cc1ccccc1)Nc1ccc(C(c2ccc(Cl)cc2)n2ccnc2)cc1 (centres undefined) = 244 °C
COc1ccc(CCSCC2CCC2)cc1 = 52 °C
CC(=O)N1c2c(ccc3c2nc(C)n3C)[C@@H]2O[C@@H]2[C@H]1c1ccccc1 = 200 to 205 °C
CC(C)(CC(=O)C(=O)Nc1ccc2c(c1Br)COC2=O)c1ccccc1 = 150 to 152 °C
Cc1cc(C)c2ccc(NC(=O)Nc3ccccc3CCc3cc(C(C)(C)C)c(O)c(C(C)(C)C)c3)nc2n1 = 235 to 237 °C
O=c1cccnn1-c1ccc2nc([C@H]3C[C@H](N4CCCCC4)C3)sc2c1 = 127 to 128 °C
Cn1ncc(/C=C/C(=O)Nc2ccc(Cc3ccccn3)cc2)c1-c1ccc(F)cc1 = 215 to 216 °C
CN1CCN(C(=O)OC2c3ccccc3C(=O)N2c2ccc3cnccc3n2)CC1 (centres undefined) = 215 °C
CC(=O)N(C(=O)c1ccccc1O)C(C)C(=O)O (racemic) = 118 to 120 °C
COc1ccc2cc(CN(C)C(=O)c3oc4ccccc4c3CCc3ccccc3)ccc2c1Br = 54 to 57 °C
COC(=O)c1ccc(COC(=O)Nc2ccc(-c3ccccc3)n(CC(=O)NC(Cc3ccccc3)C(=O)C(F)(F)F)c2=O)cc1 (centres undefined) = 186 to 189 °C
Clc1ccc2nc(-n3cccn3)nnc2c1 = 188 °C
O=C1C(=Cc2cc(Br)cs2)CCc2cc(OCCn3ccnc3)ccc21 = 164 to 166 °C
Cn1ncc(C(=O)N2CCC2)c1C(=O)Nc1ccn2nc(N3CCCC3)nc2c1 = > 250 °C
COc1ccc(C[C@@H](NC(=O)c2ccc(F)c3ccccc23)[C@@H](O)c2ccc(F)cc2)cc1 (racemic) = 210 to 211 °C
CC(C)(C)C(O)C(CS(=O)(=O)c1ccccc1)n1cncn1 (centres undefined) = 145 °C
COC(=O)[C@@]12CN(Cc3ccccc3)C[C@@H]1[C@@](O)(c1ccc(C)cc1)CC[C@H]2c1ccccc1 (racemic) = 164 °C
COc1cc2c(-c3ccncc3)c(C(=O)O)oc(=O)c2cc1OC = > 250 °C
CC(C)(CN1CCCCC1)Nc1ccnc2cc(Cl)ccc12 = 143 to 147 °C
CC(C)S(=O)c1cnc(Cl)c(Cl)c1 (centres undefined) = 62 to 64 °C
Nc1ccccc1-c1nc2ccccc2c(=O)o1 = 163 to 165 °C
CC(C)OC(=O)C1=C2SCC(=CC(=O)N3CCCCC3)N2CC1 = 128 to 130 °C
O=C1NC(=O)C2(C=CC=C3OCC=C32)N1 (centres undefined) = 245 to 248 °C
CC(C)c1sc(C#N)c2c1C(=O)CC(C)(C)C2 = 59 to 60 °C
COCOc1nn(-c2ccccc2)cc1/C=C/c1csc(C(C)(C)C)n1 = 112 to 113 °C
O=C(NCCO)c1ccc(-c2cccc3cc(Cc4cccc(C(F)(F)F)c4)sc23)cc1 = 120 to 121 °C
CCCCc1nc2cccc(C(=O)O)c2n1Cc1ccc(-c2ccccc2-c2nc(=O)o[nH]2)cc1 = 165 to 167 °C
CCN(CC)C(=O)Cc1ccccc1OC = 141 °C
CCCSc1ncc(CO)n1Cc1ccc(-c2ccccc2C(=O)O)cc1 = 194 to 195 °C
COC(=O)Cn1c2c(c3ccccc3c1=O)C(=O)c1ccccc1-2 = 248 to 251 °C
O=S(=O)(Cl)c1ccc(Oc2ccc(Cl)cc2)cc1 = 61 °C
CC(=O)NCCCCCC(=O)NC[C@@H]1CN2C(=O)C[C@H]2O1 (racemic) = 117 to 118 °C
C=CCc1cc(F)ccc1OCCCN1CCC2(CC1)C(=O)NCN2c1ccccc1 = 110 to 113 °C
CCCCn1c(=O)[nH]c2ccc(OC)c(OC)c2c1=N = 165 to 168 °C
CC1(C)Oc2cc([N+](=O)[O-])c(NC(=O)Cc3ccc(-c4ccccc4)cc3)cc2C2OC21 (centres undefined) = 171 to 174 °C

src = a melting point compilation (Tetko et al.; mined from patent text by program, amines drawn as free bases though some values may be those of a salt)
